Entry source: patent US20100135997A1

- assay.system: T1, HLA-A*0201 loaded with the Carcinoembryonic antigen (CEA)-derived … peptide (biotin on the C-terminal biotinylation tag)
- T1 construct: Soluble, biotinylated, immobilised on a streptavidin chip
- assay.comment: Biacore SPR
pKd: −log10 of the molar value.
measured.quantity: pKd

SEQ ID NO 61 (receptor, mutated soluble two domain ILT-2) MGHLPKPTLWAEPGSVITMGQPVTLRCQGGQETQEYRLYREKKTAPWITRIPQELVKKGQFPIPSITWEHAGRYRCYYGSDTAGRSESSDPLELVVTGAYIKPTLSAQPSPVVNSGGNVTLQCDSQVAFDGFILCKEGEDEHPQCLNSQPHARGSSRAIFSVGPVSPSRRWWYRCYAYDSNSPYEWSLPSDLLELLVL
≥ 6.00

Could you now look at the following binder, please?
q: What value of pKd has been recorded for this entry: SEQ ID NO 76 (receptor, mutated soluble two domain ILT-2) MGHLPKPTLWAEPGSVITQGSPVTLRCQGGQETQEYRLYREKKTAPWITRIPQELVKKGQFPIPSITWEHAGRYRCYYGTQTAGRSESSDPLELVVTGAYIKPTLSAQPSPVVNSGGNVTLQCDSQVAFDGFILCKEGEDEHPQCLNSQPHARGSSRAIFSVGPVSPSRRWWYRCYAYDSNSPYEWSLPSDLLELLVL
a: ≥ 6.00
